Assay: Intrinsic clearance (CLint) assay, human liver microsomes
Format: in vitro ADME
Details: human, pooled human liver microsomes, pH 7.4, Table 1; read-out: Human microsomal half-life
Non-standard residues stand in square brackets, D forms with d. Residues, ends and D or L forms follow the SMILES beside them. dOrn = NCCC[C@@H](N)C(=O)O

molecule	half-life at 0.5 µM
CC(C)C[C@@H]1NC(=O)[C@H](Cc2c[nH]c3ccccc23)NC(=O)[C@@H](CCCN)NC(=O)[C@H](CC(N)=O)NC(=O)[C@H](C(C)C)NC(=O)[C@@H](CC(C)C)NC1=O [Compound 1c, wollamide B] (cyclo([dOrn]WL[dL]VN))	56.8 min

---

Molecular target: human serum albumin (Homo sapiens)
Sequence (P02768 25-609): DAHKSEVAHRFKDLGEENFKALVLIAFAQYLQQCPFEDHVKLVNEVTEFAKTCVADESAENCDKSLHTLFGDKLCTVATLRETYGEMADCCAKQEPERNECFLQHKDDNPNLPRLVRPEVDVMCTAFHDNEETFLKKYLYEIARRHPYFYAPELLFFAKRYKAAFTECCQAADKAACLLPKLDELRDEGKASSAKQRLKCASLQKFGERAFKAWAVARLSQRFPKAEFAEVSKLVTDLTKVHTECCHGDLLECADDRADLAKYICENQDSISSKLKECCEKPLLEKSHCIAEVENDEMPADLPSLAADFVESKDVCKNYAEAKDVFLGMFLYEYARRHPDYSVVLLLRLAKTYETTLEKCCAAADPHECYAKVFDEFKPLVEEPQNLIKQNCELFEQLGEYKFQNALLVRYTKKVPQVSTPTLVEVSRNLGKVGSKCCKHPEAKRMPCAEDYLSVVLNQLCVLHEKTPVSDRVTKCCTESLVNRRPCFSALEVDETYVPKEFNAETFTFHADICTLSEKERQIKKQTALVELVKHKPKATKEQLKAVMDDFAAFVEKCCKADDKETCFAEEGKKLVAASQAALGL
Experiment: Human serum albumin (HSA) binding assay
Format: in vitro ADME
Details: human serum albumin binding
Non-standard residues stand in square brackets, D forms with d. Residues, ends and D or L forms follow the SMILES beside them. NMeN = CN[C@@H](CC(N)=O)C(=O)O; NMeL = CN[C@@H](CC(C)C)C(=O)O; dOrn = NCCC[C@@H](N)C(=O)O
quantityMeasured: % HSA

compound	tgt	quantityMeasured	endpointResult
COc1ccc(C[C@@H]2NC(=O)[C@@H](CCCN)NC(=O)[C@H](CC(N)=O)NC(=O)[C@H](C(C)C)NC(=O)[C@@H](CC(C)C)NC(=O)[C@H](CC(C)C)NC2=O)cc1 [Compound 15c] (cyclo(L[dL]VN[dOrn]Y(Me)))	human serum albumin (Homo sapiens)	% HSA	46.55%
CC(C)C[C@H]1NC(=O)[C@H](CC(C)C)N(C)C(=O)[C@H](Cc2c[nH]c3ccccc23)NC(=O)[C@@H](CCCN)NC(=O)[C@H](CC(N)=O)N(C)C(=O)[C@H](C(C)C)NC1=O [Compound 23c] (cyclo([NMeL][dL]V[NMeN][dOrn]W))	human serum albumin (Homo sapiens)	% HSA	82.21%
CC[C@H](C)[C@@H]1NC(=O)[C@H](Cc2c[nH]c3ccccc23)NC(=O)[C@@H](CCCN)NC(=O)[C@H](CC(N)=O)NC(=O)[C@H](C(C)C)NC(=O)[C@@H](CC(C)C)NC1=O [Compound 19c] (cyclo(I[dL]VN[dOrn]W))	human serum albumin (Homo sapiens)	% HSA	67.10%

---

Test: Intrinsic clearance (CLint) assay, mouse liver microsomes
Format: in vitro ADME
Conditions: mouse liver microsomes
Non-standard residues stand in square brackets, D forms with d. Residues, ends and D or L forms follow the SMILES beside them. dPhe(4-Cl) = N[C@H](Cc1ccc(Cl)cc1)C(=O)O; NMeN = CN[C@@H](CC(N)=O)C(=O)O; NMeL = CN[C@@H](CC(C)C)C(=O)O; dOrn = NCCC[C@@H](N)C(=O)O
Consider the following compounds and their measured CLint Mouse readings.
quantityMeasured: CLint Mouse (mL/min/g tissue)

compound	quantityMeasured	relationalOperator	endpointResult
CC[C@H](C)[C@@H]1NC(=O)[C@@H](Cc2ccc(Cl)cc2)NC(=O)[C@H](CC(C)C)NC(=O)[C@H](Cc2c[nH]c3ccccc23)NC(=O)[C@@H](CCCN)NC(=O)[C@@H](CCCN)NC1=O [Compound 18c] (cyclo(I[dOrn][dOrn]WL[dPhe(4-Cl)]))	CLint Mouse	=	0.98
CC(C)C[C@@H]1NC(=O)[C@H](Cc2c[nH]c3ccccc23)NC(=O)[C@@H](CCCN)NC(=O)[C@H](CC(N)=O)NC(=O)[C@H](C(C)C)NC(=O)[C@@H](Cc2ccc(Cl)cc2)NC1=O [Compound 16c] (cyclo(L[dPhe(4-Cl)]VN[dOrn]W))	CLint Mouse	=	0.59
CC[C@H](C)[C@@H]1NC(=O)[C@H](CC(C)C)NC(=O)[C@H](Cc2c[nH]c3ccccc23)NC(=O)[C@@H](CCCN)NC(=O)[C@H](CC(N)=O)NC(=O)[C@H](C(C)C)NC1=O [Compound 20c] (cyclo(IVN[dOrn]WL))	CLint Mouse	<	0.48
CC(C)C[C@@H]1NC(=O)[C@H](Cc2c[nH]c3ccccc23)NC(=O)[C@@H](CCCN)NC(=O)[C@H](CC(N)=O)NC(=O)[C@H](C(C)C)NC(=O)[C@@H](C)NC1=O [Compound 6c] (cyclo(L[dA]VN[dOrn]W))	CLint Mouse	<	0.48
CC[C@H](C)[C@@H]1NC(=O)[C@@H](CC(C)C)NC(=O)[C@H](CC(C)C)NC(=O)[C@H](Cc2c[nH]c3ccccc23)NC(=O)[C@@H](CCCN)NC(=O)[C@H](CO)NC1=O [Compound 10c] (cyclo(IS[dOrn]WL[dL]))	CLint Mouse	<	0.48
CC(C)C[C@H]1NC(=O)[C@H](CC(C)C)N(C)C(=O)[C@H](Cc2c[nH]c3ccccc23)NC(=O)[C@@H](CCCN)NC(=O)[C@H](CC(N)=O)N(C)C(=O)[C@H](C(C)C)NC1=O [Compound 23c] (cyclo([NMeL][dL]V[NMeN][dOrn]W))	CLint Mouse	=	1.06
